tgt: L-lactate dehydrogenase A chain (Homo sapiens)
parameter: IC50 (µM)
Please reply with the bare figure in µM and do not write the unit itself.

| mol_smiles | tgt | readout_units | IC50 |
| --- | --- | --- | --- |
| COc1ncc(-c2ccc3c(Nc4cccc(C(=O)O)c4)c(S(N)(=O)=O)cnc3c2)c(OC)n1 | L-lactate dehydrogenase A chain (Homo sapiens) | µM | 4.8 |

As a next step, examine the compound that follows.
Asked: Under L-lactate dehydrogenase A chain (Homo sapiens): IC50 value of Cn1c(=O)c2c(nc(NCc3ccccc3)n2C[C@@H](O)COc2ccc(Cl)cc2)n(C)c1=O ?
Given back: 2.3

Source listed as ChEMBL document CHEMBL3745616.
